inhibition at 1 µM values by entry
- Tested on: HCV replicon (Replicon 1a)
- TEST DETAILS: anti-HCV activity in Huh-7 cell line harboring a HCV replicon (Replicon 1a)
- Format: cell-based
- REPORTED CONDITIONS: Hepatitis C virus, Huh-7, 72 h, read-out: Replicon 1a % inhibition at 1 μM
Give your result in % as a bare value.

query: Which inhibition at 1 µM value is on record for C[C@@H]1NC(=O)[C@H](CCn2cc(CO)nn2)NC(=O)C(C)(C)/C=C/c2cc3cc(ccc3cn2)[C@@H](C)OC(=O)[C@@H]2CCCN(N2)C1=O [Compound 72] ?
result: 0

query: Which inhibition at 1 µM value is on record for COC(=O)N1CCC2(/C=C/c3ccc4ccc(nc4c3)[C@@H](C)OC(=O)[C@@H]3CCCN(N3)C(=O)[C@H](C)NC(=O)[C@H](C(C)C)NC2=O)CC1 [Compound 132] ?
result: 100

query: Which inhibition at 1 µM value is on record for CC(C)[C@@H]1NC(=O)[C@](C)(COCC[Si](C)(C)C)/C=C/c2ccc3ccc(nc3c2)[C@@H](C)OC(=O)[C@@H]2CCCN(N2)C(=O)[C@H](C)NC1=O [Compound 79] ?
result: 96

query: Which inhibition at 1 µM value is on record for CC(C)[C@@H]1NC(=O)C2(/C=C/c3ccc4ccc(nc4c3)[C@@H](C)OC(=O)[C@@H]3CCCN(N3)C(=O)[C@H](C)NC1=O)CCN(CC#N)CC2 [Compound 131] ?
result: 77

query: Which inhibition at 1 µM value is on record for CC(C)[C@@H]1NC(=O)C(C)(C)/C=C/c2ccc3ccc(nc3c2)[C@@H](C(F)(F)F)NC(=O)[C@@H]2CCCN(N2)C(=O)[C@H](C)NC1=O [Compound 13] ?
result: 87

query: Which inhibition at 1 µM value is on record for CC(C)[C@@H]1NC(=O)[C@](C)(CO)/C=C/c2ccc3ccc(nc3c2)[C@@H](C)OC(=O)[C@@H]2CCCN(N2)C(=O)[C@H](C)NC1=O [Compound 80] ?
result: 97

###

- EXPERIMENTAL TARGET: cyclophilin A (Homo sapiens)
- TEST DETAILS: Cyclophilin A TR-FRET competitive binding assay
- REPORTED CONDITIONS: IC50 ranges; competition with CsA-Cy5 for His-tagged CypA, two-hour incubation; read-out: TR-FRET
QUANTITY MEASURED: IC50

Would you please look over these solved cases?
C[C@@H]1NC(=O)[C@H](Cc2ccccc2)NC(=O)C/C=C/c2cc3cc(ccc3cn2)[C@@H](C)OC(=O)[C@@H]2CCCN(N2)C1=O | < 100 nM
CC(C)[C@@H]1NC(=O)C(C)(C)/C=C/c2ccc3ccc(nc3c2)[C@@H](C)OC(=O)[C@@H]2CCCN(N2)C(=O)[C@H](Cc2cscn2)NC1=O | < 100 nM
CC(C)[C@@H]1NC(=O)C(C)(C(C)O)/C=C/c2ccc3ccc(nc3c2)[C@@H](C)OC(=O)[C@@H]2CCCN(N2)C(=O)[C@H](C)NC1=O (single isomer, unassigned) [Compound 87] | < 100 nM
CC(C)[C@@H]1NC(=O)C(C)(C)/C=C/c2ccc3ccc(nc3c2)[C@@H](C(F)(F)F)NC(=O)[C@@H]2CCCN(N2)C(=O)[C@H](C)NC1=O | < 100 nM

query: Which IC50 value is on record for `COC[C@@]1(C)/C=C/c2ccc3ccc(nc3c2)[C@@H](C)OC(=O)[C@@H]2CCCN(N2)C(=O)[C@H](C)NC(=O)[C@H](C(C)C)NC1=O` ?
result: < 100 nM

###

- EXPERIMENTAL TARGET: cyclophilin A (Homo sapiens, UniProt P62937)
- Sequence (P62937 whole entry, species assumed): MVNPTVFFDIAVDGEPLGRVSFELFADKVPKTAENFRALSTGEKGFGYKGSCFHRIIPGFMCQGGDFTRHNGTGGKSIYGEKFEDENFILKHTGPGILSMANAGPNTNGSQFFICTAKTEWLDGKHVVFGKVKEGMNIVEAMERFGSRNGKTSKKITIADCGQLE
- TEST DETAILS: Cyclophilin A TR-FRET competitive binding assay
- REPORTED CONDITIONS: IC50 ranges; competition with CsA-Cy5 for His-tagged CypA, two-hour incubation; read-out: TR-FRET
IC50 values by entry

Would you please look over these solved cases?
Cc1cc2ccc3cc2nc1[C@@H](C)OC(=O)[C@@H]1CCCN(N1)C(=O)[C@H](C)NC(=O)[C@H](C(C)C)NC(=O)C(C)(C)/C=C/3 [Compound 163] | < 0.1 µM
CC(C)[C@@H]1NC(=O)C(C)(C)/C=C/c2cc3cc(cnc3cn2)[C@@H](C)OC(=O)[C@@H]2CCCN(N2)C(=O)[C@H](C)NC1=O [Compound 66] | < 0.1 µM
CC(C)[C@@H]1NC(=O)C(C)(C)/C=C/c2ccc3ccc(nc3c2)[C@@H]2CCCN2C(=O)[C@@H]2CCCN(N2)C(=O)[C@H](C)NC1=O (single isomer, unassigned) [Compound 151] | 1 to 10 µM
CC(C)OC(=O)OCO[C@@H](C)[C@H]1/C=C/c2ccc3ccc(nc3c2)[C@@H](C)OC(=O)[C@@H]2CCCN(N2)C(=O)[C@H](C)NC(=O)[C@H](C(C)C)NC1=O [Compound 168] | < 0.1 µM
CC(C)[C@@H]1NC(=O)C(C)(C)/C=C/c2ccc3c(=O)n(C)c(nc3c2)[C@@H](C)OC(=O)C2CCCN(N2)C(=O)[C@@H](C)NC1=O (some centres unmarked) [Compound 147] | < 0.1 µM

query: Which IC50 value is on record for CC(C)[C@@H]1NC(=O)C2(/C=C/c3ccc4ccc(nc4c3)[C@@H](C)OC(=O)[C@@H]3CCCN(N3)C(=O)[C@H](C)NC1=O)CC2 [Compound 152] ?
result: < 0.1 µM

query: Which IC50 value is on record for COC1CCC=Cc2cccc(c2)C2CCCCN2C(=O)C2CCCN(N2)C(=O)C(C)NC(=O)C(C(C)C)NC(=O)C1C (single isomer, unassigned) [Compound 30] ?
result: < 0.1 µM

query: Which IC50 value is on record for Cc1cc2cc3nc(ccc13)[C@@H](C)OC(=O)C1CCCN(N1)C(=O)[C@@H](C)NC(=O)[C@H](C(C)C)NC(=O)C(C)(C)/C=C/2 (some centres unmarked) [Compound 148] ?
result: < 0.1 µM

query: Which IC50 value is on record for C[C@@H]1NC(=O)[C@H](C2CCCCC2)NC(=O)C/C=C/c2cc3cc(ccc3cn2)[C@@H](C)OC(=O)[C@@H]2CCCN(N2)C1=O [Compound 53] ?
result: 0.101 to 1 µM

query: Which IC50 value is on record for Cc1cc2nc3cc(ccc13)/C=C/C(C)(C)C(=O)N[C@@H](C(C)C)C(=O)N[C@@H](C)C(=O)N1CCC[C@H](N1)C(=O)O[C@@H]2C [Compound 144] ?
result: < 0.1 µM

query: Which IC50 value is on record for COC1CCC=Cc2cccc(c2)C2CCCCN2C(=O)C2CCCN(N2)C(=O)C(C)NC(=O)C(C(C)C)NC(=O)C1C (single isomer, unassigned) [Compound 29] ?
result: 1 to 10 µM

###

pIC50 values by entry
- EXPERIMENTAL TARGET: cyclophilin A (Homo sapiens, UniProt P62937)
- TEST DETAILS: Cyclophilin A TR-FRET competitive binding assay
- REPORTED CONDITIONS: IC50 ranges; competition with CsA-Cy5 for His-tagged CypA, two-hour incubation; read-out: TR-FRET
pIC50: −log10 of the molar value.

Would you please look over these solved cases?
CC(C)[C@@H]1NC(=O)C2(/C=C/c3ccc4ccc(nc4c3)[C@@H](C)OC(=O)[C@@H]3CCCN(N3)C(=O)[C@H](C)NC1=O)COC2 | > 7.00
CC(C)[C@@H]1NC(=O)C(C)(C2CCOC2)/C=C/c2ccc3ccc(nc3c2)[C@@H](C)OC(=O)[C@@H]2CCCN(N2)C(=O)[C@H](C)NC1=O (some centres unmarked) | > 7.00
CC(C)[C@H](NC(=O)[C@H](/C=C/c1ccc2ccc([C@@H](C)O)nc2c1)[C@H](C)O)C(=O)N[C@@H](C)C(=O)N1CCC[C@@H](C(=O)O)N1 | 5.00 to 6.00
COCc1cc2ccc3cc2nc1[C@@H](C)OC(=O)[C@@H]1CCCN(N1)C(=O)[C@H](C)NC(=O)[C@H](C(C)C)NC(=O)C(C)(C)/C=C/3 | > 7.00
CC(C)[C@@H]1NC(=O)C2(/C=C/c3ccc4ccc(nc4c3)[C@@H](C)OC(=O)[C@@H]3CCCN(N3)C(=O)[C@H](C)NC1=O)CCN(CC#N)CC2 | > 7.00
CC(C)[C@@H]1NC(=O)C(C)(C)/C=C/c2ccc3ccc(nc3c2)[C@@H](C)OC(=O)[C@@H]2CCCN(N2)C(=O)[C@H](Cc2c[nH]cn2)NC1=O | > 7.00
CC(C)[C@H](N)C(=O)O[C@@H](C)[C@H]1/C=C/c2ccc3ccc(nc3c2)[C@@H](C)OC(=O)[C@@H]2CCCN(N2)C(=O)[C@H](C)NC(=O)[C@H](C(C)C)NC1=O | > 7.00
CC(C)[C@@H]1NC(=O)C(C)(C)/C=C/c2ccc3ccc(nc3c2)[C@@H](C)OC(=O)[C@@H]2CCCN(N2)C(=O)[C@H](Cc2cn(C(c3ccccc3)(c3ccccc3)c3ccccc3)cn2)NC1=O | > 7.00
CC(C)[C@@H]1NC(=O)[C@@]2(/C=C/c3ccc4ccc(nc4c3)[C@@H](C)OC(=O)[C@@H]3CCCN(N3)C(=O)[C@H](C)NC1=O)CCCN2S(C)(=O)=O | > 7.00
CC(C)[C@@H]1NC(=O)C2(/C=C/c3ccc4ccc(nc4c3)[C@@H](C)OC(=O)[C@@H]3CCCN(N3)C(=O)[C@H](C)NC1=O)CCN(S(C)(=O)=O)CC2 | > 7.00

Then this compound:
query: Which pIC50 value is on record for CC(C)[C@@H]1NC(=O)C(C)(C)/C=C/c2ccc3ccc(nc3c2)[C@@H](C)OC(=O)[C@@H]2CCCN(N2)C(=O)C(CC2CCOCC2)NC1=O (single isomer, unassigned) ?
result: 6.00 to 7.00
